- Target Entity: sigma-2 receptors expressed in Jurkat cells (Homo sapiens, UniProt Q5BJF2)
- Construct: In the sigma-2 receptors expressed in Jurkat cells; endogenous in cells
- Sequence (Q5BJF2 whole entry): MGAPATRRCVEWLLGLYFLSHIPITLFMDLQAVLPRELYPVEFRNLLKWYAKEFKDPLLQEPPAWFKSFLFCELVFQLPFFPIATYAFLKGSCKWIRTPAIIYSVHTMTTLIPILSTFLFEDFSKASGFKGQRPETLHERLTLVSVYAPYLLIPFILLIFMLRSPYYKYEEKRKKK
- Test Method Notes: Identification of sigma-2 receptor inhibition constant
- Condition Parameters: 25 nM [3H] DTG under the presence of 1 μM (+)-pentazocine, room temperature for 60 minutes, Cheng-Prusoff equation
Measured Property: Ki (nM)
Could you give me the number in nM? Just the number is fine.

[ask] Give recorded Ki with sigma-2 receptors expressed in Jurkat cells (Homo sapiens, UniProt Q5BJF2) for the following molecule: O=C(O)/C=C\C(=O)O.OC1CN(CCCOCCc2ccc3sccc3c2)C1 [compound A, maleate]
[reply] 160

Source of measurements: patent US10238632B2
